Known IC90 of a selection of compounds
tested on: M. tuberculosis H37Rv growth inhibition with meropenem; assay: dose response, H37Rv, with and without meropenem (AID 434987); conditions: measured here: IC90 with meropenem;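 also: growth over 7 days at 37 °C before Alamar Blue read on day 9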

See these solved cases before continuing.
compound=O=C1CS/C(=N/N=C2C3CC4CC(C3)CC2C4)N1 system_under_test="M. tuberculosis H37Rv growth inhibition with meropenem" assay_readout=IC90 measurement="13.8 µM"
compound=COC(=O)/C(=C\Nc1ccc(Cl)c2ccccc12)c1ncc(C(F)(F)F)cc1Cl system_under_test="M. tuberculosis H37Rv growth inhibition with meropenem" assay_readout=IC90 measurement="> 100 µM"
compound=Cc1c(C(=O)Nc2cccnc2)oc2ccc(Br)cc12 system_under_test="M. tuberculosis H37Rv growth inhibition with meropenem" assay_readout=IC90 measurement="> 100 µM"
compound=O=C(NNC(=O)c1ccc(Oc2cc(Cl)cc(Cl)c2)o1)c1ccccc1 system_under_test="M. tuberculosis H37Rv growth inhibition with meropenem" assay_readout=IC90 measurement="> 100 µM"
compound=Cc1ccc(C(C)C)c(OCc2ccc(C(=O)N/N=C/c3ccc(C(=O)O)cc3)cc2)c1 system_under_test="M. tuberculosis H37Rv growth inhibition with meropenem" assay_readout=IC90 measurement="49.5 µM"
compound=O=[N+]([O-])c1cc(C(F)(F)F)ccc1NCCc1c[nH]c2ccc(O)cc12 system_under_test="M. tuberculosis H37Rv growth inhibition with meropenem" assay_readout=IC90 measurement="72.9 µM"
compound=O=c1c2cc(Cl)ccc2[nH]c(=S)n1Cc1cccs1 system_under_test="M. tuberculosis H37Rv growth inhibition with meropenem" assay_readout=IC90 measurement="13.2 µM"
compound=Cc1ccc(OC(=O)COc2ccccc2)c(-n2nc3ccccc3n2)c1 system_under_test="M. tuberculosis H37Rv growth inhibition with meropenem" assay_readout=IC90 measurement="> 100 µM"
compound=Cn1nnnc1SCC(=O)Nc1ccccc1[N+](=O)[O-] system_under_test="M. tuberculosis H37Rv growth inhibition with meropenem" assay_readout=IC90 measurement="> 100 µM"
compound=CCn1c(=O)c2cc(C(=O)N(C)c3ccccc3F)sc2c2ccccc21 system_under_test="M. tuberculosis H37Rv growth inhibition with meropenem" assay_readout=IC90 measurement="> 100 µM"

Would you mind telling me what IC90 value was observed for CC(C)CC(=O)N1CCN(c2ccc([N+](=O)[O-])c(NCc3ccccc3)c2)CC1 ?
48.6 µM

Param item: CCCN1C(=O)c2ccc(C(=O)Nc3cc(C)on3)cc2C1=O
> 100 µM

Same question for CC(C)Oc1ccc(N2CC(C(=O)Nc3ccccc3F)CC2=O)cc1 (stereo not drawn) please.
> 100 µM

How about CCC(=O)NC(=S)Nc1ccc(NC(=O)c2ccccc2[N+](=O)[O-])cc1 ?
> 100 µM

Same question, O=C1OC(/C=C/c2ccccc2)=NC/1=C/c1ccco1 this time
13.9 µM

----------
test system: M. tuberculosis H37Rv growth inhibition with meropenem; test: dose response, H37Rv, with and without meropenem (AID 434987); conditions: measured here: IC90 with meropenem;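 also: growth over 7 days at 37 °C before Alamar Blue read on day 9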
Assay Readout: IC90

I am curious: what IC90 value has been reported for O=S(=O)(Cc1ccccc1)c1cnc2ccccc2n1 ?
48.6 µM

----------
tested on: M. tuberculosis H37Rv growth inhibition with meropenem; assay: dose response, H37Rv, with and without meropenem (AID 434987);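 also: growth over 7 days at 37 °C before Alamar Blue read on day 9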; conditions: M. tuberculosis H37Rv growth inhibition; measured here: IC50 without meropenem
pIC50: −log10 of the molar value.
Assay Readout: pIC50

Some compounds with known pIC50 results, for comparison:
compound=CS/C(N)=N/N=C/c1cc(Br)cc(Br)c1O measurement=4.46
compound="COc1ccc(NC(=O)C(Cc2ccccc2)n2cccc2)c(OC)c1 (centres undefined)" measurement=4.32
compound=Clc1ccc(-c2csc3ncnc(N4CCc5ccccc5C4)c23)cc1 measurement="< 4.00"
compound=Cn1c2ccccc2c(=O)c2cc(C#CC3(O)CCCCC3)ccc21 measurement="< 4.00"
compound=Cc1cccc(C)c1-n1c(C)cc(/C=C2\C(=O)NN(c3ccccc3)C2=O)c1C measurement="< 4.00"

// returns reported pIC50 for input COc1nc(Nc2nc3ccccc3c(=O)[nH]2)nc2ccc(C)cc12
< 4.00

Another compound to look at: CCOC(=O)c1cnc2cc(-c3ccc(C(C)(C)C)cc3)nn2c1N
4.92

Continue with CC1CC(C)(C)n2c(O)c(N=NC(N)=S)c3cccc1c32 (centres undefined)
< 4.00
